Test: HPLC stability study in phosphate buffers
Format: physicochemical
Settings: phosphate buffer, pH 4; read-out: half-life (t½) (converted)
Measured Quantity: half-life at 14.6 µg/mL (h)
Return type: number; implicit unit h.

Query :: Hello, please tell me recorded half-life at 14.6 µg/mL for this one: C=C(C)C1C(=O)N(c2cc(OC)c(OC)c(OC)c2)C1c1ccc(OC)c(O)c1 (centres unmarked)
Result :: 13

----------
Measured GI50, listed per entry.
Tested on: MOLT-4
Test: NCI-60 SRB screen, leukemia
Format: cell-based, human
Details: Homo sapiens; MOLT-4; five dose 0.01–100 µM, 48 h; read-out: GI50
Answer with the figure and its unit, nothing else.

{"Molecule": "C=C(C)C1C(=O)N(c2cc(OC)c(OC)c(OC)c2)C1c1ccc(OC)c(N)c1 (stereo not drawn) [9s]", "System Name": "MOLT-4", "GI50": "37.2 nM"}
{"Molecule": "COc1ccc(C2C(C(C)C)C(=O)N2c2cc(OC)c(OC)c(OC)c2)cc1OP(=O)(O)O (stereo not drawn) [15b]", "System Name": "MOLT-4", "GI50": "493 nM"}
{"Molecule": "C=CCC1C(=O)N(c2cc(OC)c(OC)c(OC)c2)C1c1ccc(OC)c(O)c1 (stereo not drawn) [10p]", "System Name": "MOLT-4", "GI50": "40.8 nM"}
{"Molecule": "C=C(C)C1C(=O)N(c2cc(OC)c(OC)c(OC)c2)C1c1ccc(OC)cc1 (stereo not drawn) [9h]", "System Name": "MOLT-4", "GI50": "39.7 nM"}
{"Molecule": "C=C(C)C1C(=O)N(c2cc(OC)c(OC)c(OC)c2)C1c1ccc(OC)c(OP(=O)(O)O)c1 (stereo not drawn) [15a]", "System Name": "MOLT-4", "GI50": "85.2 nM"}

Query :: Supply reported GI50 belonging to this molecule: C=C(C)C1C(=O)N(c2cc(OC)c(OC)c(OC)c2)C1c1ccc(OC)c(O)c1 (stereo not drawn) [9q]
Result :: 20.2 nM

----------
Assay: HPLC stability study in phosphate buffers
Assay type: physicochemical
Conditions: phosphate buffer; pH 9.0; study over 24 h
Measured Quantity: remaining at 24 h, 14.6 µg/mL (%)
Respond numerically; units are % and should not be typed.

Query :: Indicate its recorded remaining at 24 h, 14.6 µg/mL; the molecule in question is C=C(C)C1C(=O)N(c2cc(OC)c(OC)c(OC)c2)C1c1ccc(OC)c(O)c1 (stereo not shown) [9q]
Result :: 34

----------
Test system: UACC-62
Assay: NCI-60 SRB screen, melanoma
Format: cell-based, human
Details: Homo sapiens; UACC-62; five dose 0.01–100 µM, 48 h; read-out: GI50
The reader will find reported GI50 values listed item by item below.
# output: bare number, implied unit nM

{"Compound": "C=C(C)C1C(=O)N(c2cc(OC)c(OC)c(OC)c2)C1c1ccc(OC)c(OP(=O)(O)O)c1 (stereo not drawn) [15a]", "U": "nM", "GI50": 55.5}

The record that follows has no GI50 shown yet.
Query :: Fill in GI50 for record C=CCC1C(=O)N(c2cc(OC)c(OC)c(OC)c2)C1c1ccc(OC)c(O)c1 (stereo not drawn) [10p]
Result :: 32

----------
Tested on: purified bovine brain tubulin
Assay: Tubulin polymerization assay (light scattering, BK006 kit)
Format: biochemical
Conditions: compound at 10 μM; relative to vehicle
Measured Quantity: Fold Reduction in Vmax
# print the numeric value only

Solved entries:
{"Compound": "C=CCC1C(=O)N(c2cc(OC)c(OC)c(OC)c2)C1c1ccc(OC)cc1 (stereo not shown) [10h]", "Measured Quantity": "Fold Reduction in Vmax", "Observed": 2.5}
{"Compound": "C=C(C)C1C(=O)N(c2cc(OC)c(OC)c(OC)c2)C1c1ccc(OC)c(O)c1 (stereo not shown)", "Measured Quantity": "Fold Reduction in Vmax", "Observed": 4.27}
{"Compound": "C=C/C=C/C1C(=O)N(c2cc(OC)c(OC)c(OC)c2)C1c1ccc(OC)c(N)c1 (stereo not shown) [11r]", "Measured Quantity": "Fold Reduction in Vmax", "Observed": 2.0}
{"Compound": "C=CC=CC1C(=O)N(c2cc(OC)c(OC)c(OC)c2)C1c1ccc(OC)cc1 (stereo not shown) [11h]", "Measured Quantity": "Fold Reduction in Vmax", "Observed": 2.9}
{"Compound": "C=C(C)C1C(=O)N(c2cc(OC)c(OC)c(OC)c2)C1c1ccc(OC)cc1 (stereo not shown)", "Measured Quantity": "Fold Reduction in Vmax", "Observed": 1.81}

Query :: Identify measured Fold Reduction in Vmax associated with C=C(C)C1C(=O)N(c2cc(OC)c(OC)c(OC)c2)C1c1ccc(OC)c(N)c1 (stereo not shown)
Result :: 2.66

Query :: Identify Fold Reduction in Vmax associated with the compound C=C/C=C/C1C(=O)N(c2cc(OC)c(OC)c(OC)c2)C1c1ccc(OC)c(O)c1 (stereo not shown) [11p]
Result :: 1.1

Query :: Supply reported Fold Reduction in Vmax belonging to this compound: C=CCC1C(=O)N(c2cc(OC)c(OC)c(OC)c2)C1c1ccc(OC)c(O)c1 (stereo not shown) [10p]
Result :: 4.5

Query :: Specify Fold Reduction in Vmax for CCOC(=O)CC1C(=O)N(c2cc(OC)c(OC)c(OC)c2)C1c1ccc(OC)cc1 (stereo not shown) [17f] and stop.
Result :: 2.2

Query :: Report Fold Reduction in Vmax, nothing else, for this compound: C=CCC1C(=O)N(c2cc(OC)c(OC)c(OC)c2)C1c1ccc(OC)c(N)c1 (stereo not shown) [10r]
Result :: 3.4

----------
Test: HPLC stability under degradation conditions (acid, alkali, heat, light, oxidation)
Details: 1M NaOH added to stock solution, % Remaining, 1M NaOH (0.2 mL, 50 °C, 4h)
Measured Quantity: remaining at 4 h (%)
Give just the numeric value; % need not be written.

{"Molecule": "C=CCC1C(=O)N(c2cc(OC)c(OC)c(OC)c2)C1c1ccc(OC)c(N)c1 (centres unmarked) [10r]", "U": "%", "remaining at 4 h": 83.1}

Here is the next item to consider.
Query :: For the molecule C=CCC1C(=O)N(c2cc(OC)c(OC)c(OC)c2)C1c1ccc(OC)c([N+](=O)[O-])c1 (centres unmarked) [10q] , report remaining at 4 h.
Result :: 97.8

----------
System: SK-MEL-2
Assay: NCI-60 SRB screen, melanoma
Assay type: cell-based, human
Settings: Homo sapiens; SK-MEL-2; five dose 0.01–100 µM, 48 h; read-out: GI50
Exam item: assign true to entries whose GI50 is below 0.5 µM and false to entries at or above 0.5 µM. Note that a value of exactly 0.5 µM receives false.

Please review the following examples before continuing.
{"Compound": "C=C(C)C1C(=O)N(c2cc(OC)c(OC)c(OC)c2)C1c1ccc(OC)c(OP(=O)(O)O)c1 (stereo not drawn) [15a]", "Discrete Label": "true"}
{"Compound": "C=C(C)C1C(=O)N(c2cc(OC)c(OC)c(OC)c2)C1c1ccc(OC)cc1 (stereo not drawn) [9h]", "Discrete Label": "false"}
{"Compound": "C=CCC1C(=O)N(c2cc(OC)c(OC)c(OC)c2)C1c1ccc(OC)c(O)c1 (stereo not drawn) [10p]", "Discrete Label": "true"}

Query :: # TODO verify GI50 < 0.5 µM strictly for this compound: C=C(C)C1C(=O)N(c2cc(OC)c(OC)c(OC)c2)C1c1ccc(OC)c(O)c1 (stereo not drawn) [9q]
Result :: true

Query :: Does this compound meet the criterion GI50 < 0.5 µM? C=C(C)C1C(=O)N(c2cc(OC)c(OC)c(OC)c2)C1c1ccc(OC)c(N)c1 (stereo not drawn) [9s]
Result :: true

----------
Experiment: HPLC stability under degradation conditions (acid, alkali, heat, light, oxidation)
Settings: 1M HCl added to stock solution, % Remaining, 1M HCl (0.1 mL, 20 °C, 4h)
remaining at 4 h listing for selected compounds.
# value in %; strip the unit string

Study these solved cases before continuing.
{"Compound": "C=CCC1C(=O)N(c2cc(OC)c(OC)c(OC)c2)C1c1ccc(OC)c([N+](=O)[O-])c1 (stereo not drawn) [10q]", "U": "%", "remaining at 4 h": 99.2}
{"Compound": "C=CCC1C(=O)N(c2cc(OC)c(OC)c(OC)c2)C1c1ccc(OC)c(N)c1 (stereo not drawn) [10r]", "U": "%", "remaining at 4 h": 91.8}

# next compound below
Query :: Please give measured remaining at 4 h of the following entry: C=CCC1C(=O)N(c2cc(OC)c(OC)c(OC)c2)C1c1ccc(OC)cc1 (stereo not drawn) [10h]
Result :: 97.5

----------
Tested on: MCF-7 human breast cancer cells
Assay: cells
Details: MCF7, 72 h, read-out: Antiproliferative Activity IC50, MCF-7, 72 h, eight concentrations (0.001–50 mM [sic]), mean ± SEM, Table 5
Recorded IC50 values for a group of compounds are listed next.
Write it as a number; the unit µM goes unstated.

{"Compound": "CCOC(=O)CC1C(=O)N(c2cc(OC)c(OC)c(OC)c2)C1c1ccc(OC)c(O)c1 (centres unmarked) [17g]", "Measured Quantity": "IC50", "Observed": 0.075}
{"Compound": "COc1ccc(/C=C\\c2cc(OC)c(OC)c(OC)c2)cc1O [CA-4, Combretastatin A-4, reference compound]", "Measured Quantity": "IC50", "Observed": 0.0039}

Query :: Consider the compound O=C1C(CC=Cc2ccccc2)C(c2ccccc2)N1c1ccccc1 (centres unmarked) [17c, 3-Cinnamyl-1,4-diphenylazetidin-2-one] and give its recorded IC50.
Result :: 75.4

Query :: Find the measured IC50 of COc1ccc(C2C(C=Cc3ccc(C(F)(F)F)cc3)C(=O)N2c2cc(OC)c(OC)c(OC)c2)cc1 (centres unmarked) [compound 19] and report it.
Result :: 7.71
